Answer each item with its documented IC90.
Tested on: Mycobacterium tuberculosis
Assay: Antimycobacterial activity against Mycobacterium tuberculosis H37Rv by twofold dilution method
Format: functional, organism-based
Numeric answer only, unit µg/mL assumed.

molecule `CCNc1c(NCc2ccc(OC)cc2)ncnc1-c1ccco1` , IC90 observed: 46

molecule `COc1ccc(CNc2nc(Cl)nc(-c3ccco3)c2NC=O)cc1` , IC90 observed: 0.2

molecule `COc1ccc(CN(C)c2cc(-c3ccco3)nc(Cl)n2)cc1` , IC90 observed: 3

molecule `COc1ccc(CN(C)c2ncnc(-c3ccco3)c2N)cc1` , IC90 observed: 17

molecule `NCC[C@H](O)C(=O)N[C@@H]1C[C@H](N)[C@@H](O[C@H]2O[C@H](CN)[C@@H](O)[C@H](O)[C@H]2O)[C@H](O)[C@H]1O[C@H]1O[C@H](CO)[C@@H](O)[C@H](N)[C@H]1O.O=S(=O)(O)O` , IC90 observed: 0.13

molecule `COc1ccc(CN(C)c2ncnc(-c3ccco3)c2[N+](=O)[O-])cc1` , IC90 observed: 13

molecule `CNc1c(NCc2ccc(OC)cc2)ncnc1-c1ccco1` , IC90 observed: 15

molecule `COc1ccc(Cn2cncc2-c2cc(-c3ccco3)ncn2)cc1` , IC90 observed: 14

molecule `COc1ccc(CN(C=O)c2c(-c3ccco3)nc[nH]c2=O)cc1` , IC90 observed: 92

molecule `COc1ccc(CNc2nc([N+](=O)[O-])nc(-c3ccco3)c2NC=O)cc1` , IC90 observed: 1.1

molecule `COc1ccc(Cn2cnc(-c3cncnc3-c3ccco3)c2)cc1` , IC90 observed: 82

molecule `COc1ccc(CNc2nc(C)nc(-c3ccco3)c2NC=O)cc1` , IC90 observed: 0.33

molecule `COc1ccc(CNc2nc(N(C)C)nc(-c3ccco3)c2NC=O)cc1` , IC90 observed: 26

molecule `COc1ccc(CN(C)c2cc(-c3ccco3)ncn2)cc1` , IC90 observed: 7.1

molecule `COc1ccc(CNc2ncnc(-c3ccco3)c2[N+](=O)[O-])cc1` , IC90 observed: 21

molecule `CCc1nc(NCc2ccc(OC)cc2)c(NC=O)c(-c2ccco2)n1` , IC90 observed: 0.53

molecule `COc1ccc(CNc2ncnc(-c3ccco3)c2NC=O)cc1` , IC90 observed: 0.56

molecule `COc1ccc(CNc2nc(OC)nc(-c3ccco3)c2NC=O)cc1` , IC90 observed: 1.5

* * *

Answer each item with its documented degraded at 600 h.
Assay: Chemical stability in CD3OD solution assessed as cyclization after 25 days
Assay type: physicochemical
Conditions: read-out: Activity
A bare number is not enough; add the unit after it.

compound `COc1ccc(CNc2ncnc(-c3ccco3)c2NC=O)cc1` , degraded at 600 h observed: 90%

compound `COc1ccc(CNc2nc(OC)nc(-c3ccco3)c2NC=O)cc1` , degraded at 600 h observed: 12%

compound `COc1ccc(CNc2nc(Cl)nc(-c3ccco3)c2NC=O)cc1` , degraded at 600 h observed: 12%

compound `COc1ccc(CNc2nc(C)nc(-c3ccco3)c2NC=O)cc1` , degraded at 600 h observed: 90%

compound `COc1ccc(CNc2nc(N(C)C)nc(-c3ccco3)c2NC=O)cc1` , degraded at 600 h observed: 12%

compound `CCc1nc(NCc2ccc(OC)cc2)c(NC=O)c(-c2ccco2)n1` , degraded at 600 h observed: 90%

Reference source: ChEMBL document CHEMBL1165967
